# Measured target: Steryl-sulfatase (Homo sapiens)
# Procedure summary: Compound was tested for the Inhibitory activity against the Estrone Sulfatase at a concentration of 10 uM
Experimental endpoint: inhibition (%)

Worked examples, 4 molecules total:
CCCCCCOC(=O)c1ccc(OS(N)(=O)=O)cc1: 72.6
CCCCCCCCOC(=O)c1ccc(OS(N)(=O)=O)cc1: 63
CCCCCOC(=O)c1ccc(OS(N)(=O)=O)cc1: 64.4
CCCCCCCCCCOC(=O)c1ccc(OS(N)(=O)=O)cc1: 36.5

1. CCCCOC(=O)c1ccc(OS(N)(=O)=O)cc1
2. CCCCCCCOC(=O)c1ccc(OS(N)(=O)=O)cc1
3. CCOC(=O)c1ccc(OS(N)(=O)=O)cc1
### Prompt Parameters: sort_field (inhibition), sort_dir (desc). Output spec: a listing of the labels in the requested order.
### Response 2, 1, 3
(2: 69.5%, 1: 48.3%, 3: 25.6%)

a. C[C@]12CC[C@@H]3c4ccc(OS(N)(=O)=O)cc4CCC3[C@@H]1CCC2=O (single isomer, unassigned)
b. CCCOC(=O)c1ccc(OS(N)(=O)=O)cc1
### Prompt Among a and b , which shows a numerically higher inhibition result? Selection: enter the item's label.
### Response a
